Data origin: patent US5684012A

Target: sigma receptors
Experiment: Inhibition of ^3H-DTG binding to sigma receptors in rat brain in vitro
Details: Table I; 2 nM ^3H-DTG, rat brain without cerebellum, 25° C., 20 min
pIC50: −log10 of the molar value. Counter-ions that a name gives are not always drawn.
Response key: 1 (yes) means pIC50 >= 8; 0 (no) means pIC50 < 8.

[[record]]
molecule = "Fc1ccc(C2CCN(CCCCCN3CCC(c4ccc(F)cc4)CC3)CC2)cc1"
assigned_category = "1 (yes)"

[[record]]
molecule = "O=C(CN1CCN(c2ccc(F)cc2)CC1)CN1CCN(c2ccc(F)cc2)CC1 [Compound 13a]"
assigned_category = "0 (no)"

[[record]]
molecule = "C1=CC2(CCN(CCCCN3CCC4(C=Cc5ccccc54)CC3)CC2)c2ccccc21"
assigned_category = "1 (yes)"

[[record]]
molecule = "O=S(=O)(CCN1CCC2(CC1)OCc1ccccc12)CCN1CCC2(CC1)OCc1ccccc12"
assigned_category = "0 (no)"

[[record]]
molecule = "Fc1ccc(C2CCN(CCCN3CCC(c4ccc(F)cc4)CC3)CC2)cc1"
assigned_category = "1 (yes)"

[[record]]
molecule = "c1ccc2c(c1)COC21CCN(CCN(CCN2CCC3(CC2)OCc2ccccc23)C2CCCC2)CC1 [Compound 3a, trihydrochloride]"
assigned_category = "1 (yes)"

[[record]]
molecule = "c1ccc2c(c1)COC21CCN(CCCCN2CCC3(CC2)OCc2ccccc23)CC1"
assigned_category = "1 (yes)"

[[record]]
molecule = "c1ccc2c(c1)COC21CCN(CCN2CCC3(CC2)OCc2ccccc23)CC1"
assigned_category = "1 (yes)"

[[record]]
molecule = "Fc1ccc(C2CCN(CCN3CCC(c4ccc(F)cc4)CC3)CC2)cc1"
assigned_category = "1 (yes)"

[[record]]
molecule = "c1ccc2c(c1)COC21CCN(CCSCCN2CCC3(CC2)OCc2ccccc23)CC1"
assigned_category = "1 (yes)"

[[record]]
molecule = "Fc1ccc2c(c1)C1(CCN(CCCCN3CCC4(CC3)OCc3ccc(F)cc34)CC1)OC2"
assigned_category = "1 (yes)"

[[record]]
molecule = "Fc1ccc(C(CCN2CCC3(CC2)OCc2ccccc23)CCN2CCC3(CC2)OCc2ccccc23)cc1"
assigned_category = "1 (yes)"

[[record]]
molecule = "Fc1ccc(C2=CC3CCC(C2)N3CCCCN2C3C=C(c4ccc(F)cc4)CC2CC3)cc1"
assigned_category = "0 (no)"

[[record]]
molecule = "C1=CC2(CCN(CCCCN3CCC4(C=Cc5ccccc5O4)CC3)CC2)Oc2ccccc21"
assigned_category = "0 (no)"

[[record]]
molecule = "CN(CCN1CCC2(CC1)OCc1ccccc12)CCN1CCC2(CC1)OCc1ccccc12 [Compound 3b, trihydrochloride]"
assigned_category = "1 (yes)"

[[record]]
molecule = "Fc1ccc(C2=CCN(CCCCN3CC=C(c4ccc(F)cc4)CC3)CC2)cc1"
assigned_category = "1 (yes)"

[[record]]
molecule = "Fc1ccc(C2CCN(CCCCN3CCC(c4ccc(F)cc4)CC3)CC2)cc1"
assigned_category = "1 (yes)"

[[record]]
molecule = "c1ccc2c(c1)COC21CC2CCC(C1)N2CCCCN1C2CCC1CC1(C2)OCc2ccccc21 (stereo not drawn)"
assigned_category = "0 (no)"

[[record]]
molecule = "c1ccc2c(c1)CCC1(CCN(CCCCN3CCC4(CCc5ccccc5O4)CC3)CC1)O2"
assigned_category = "0 (no)"

[[record]]
molecule = "c1ccc2c(c1)COC21CCN(CCCCCCN2CCC3(CC2)OCc2ccccc23)CC1"
assigned_category = "1 (yes)"

[[record]]
molecule = "Fc1ccc(N2CCN(CCCCN3CCN(c4ccc(F)cc4)CC3)CC2)cc1"
assigned_category = "1 (yes)"

[[record]]
molecule = "Fc1cccc2c1C1(CCN(CCCCN3CCC4(CC3)OCc3cccc(F)c34)CC1)OC2"
assigned_category = "1 (yes)"

[[record]]
molecule = "c1ccc2c(c1)CCOC21CCN(CCCCN2CCC3(CC2)OCCc2ccccc23)CC1"
assigned_category = "1 (yes)"

[[record]]
molecule = "c1ccc2c(c1)OCCC21CCN(CCCCN2CCC3(CCOc4ccccc43)CC2)CC1"
assigned_category = "1 (yes)"

[[record]]
molecule = "Fc1ccc(C2CCN(CCN(CCN3CCC(c4ccc(F)cc4)CC3)c3ccccc3)CC2)cc1"
assigned_category = "1 (yes)"

[[record]]
molecule = "c1ccc2c(c1)COC21CCN(CCCN2CCC3(CC2)OCc2ccccc23)CC1 [Compound 2a, difumarate]"
assigned_category = "1 (yes)"

[[record]]
molecule = "Cc1ccc2c(c1)COC21CCN(CCCCN2CCC3(CC2)OCc2cc(C)ccc23)CC1"
assigned_category = "0 (no)"

[[record]]
molecule = "c1ccc2c(c1)COC21CCN(CCCCCN2CCC3(CC2)OCc2ccccc23)CC1"
assigned_category = "1 (yes)"

[[record]]
molecule = "c1ccc2c(c1)OC1(CCN(CCCCN3CCC4(CC3)Oc3ccccc3O4)CC1)O2"
assigned_category = "0 (no)"

[[record]]
molecule = "c1ccc2c(c1)CCCC21CCN(CCCCN2CCC3(CCCc4ccccc43)CC2)CC1"
assigned_category = "1 (yes)"

[[record]]
molecule = "OC(CN1CCC(c2ccc(F)cc2)CC1)CN1CCC(c2ccc(F)cc2)CC1 [Compound 12a]"
assigned_category = "1 (yes)"

